target: rat NaP2b (SLC34A2) (Rattus norvegicus); construct: host or cells: HEK293; experiment: Inhibition of NaP2b-mediated Pi (33P) uptake in transfected HEK293 cells, rat NaP2b; type: cell-based; settings: 33P Pi uptake, 0.1 mM phosphate, value given as pIC50 range
Sequence (Q9JJ09 whole entry): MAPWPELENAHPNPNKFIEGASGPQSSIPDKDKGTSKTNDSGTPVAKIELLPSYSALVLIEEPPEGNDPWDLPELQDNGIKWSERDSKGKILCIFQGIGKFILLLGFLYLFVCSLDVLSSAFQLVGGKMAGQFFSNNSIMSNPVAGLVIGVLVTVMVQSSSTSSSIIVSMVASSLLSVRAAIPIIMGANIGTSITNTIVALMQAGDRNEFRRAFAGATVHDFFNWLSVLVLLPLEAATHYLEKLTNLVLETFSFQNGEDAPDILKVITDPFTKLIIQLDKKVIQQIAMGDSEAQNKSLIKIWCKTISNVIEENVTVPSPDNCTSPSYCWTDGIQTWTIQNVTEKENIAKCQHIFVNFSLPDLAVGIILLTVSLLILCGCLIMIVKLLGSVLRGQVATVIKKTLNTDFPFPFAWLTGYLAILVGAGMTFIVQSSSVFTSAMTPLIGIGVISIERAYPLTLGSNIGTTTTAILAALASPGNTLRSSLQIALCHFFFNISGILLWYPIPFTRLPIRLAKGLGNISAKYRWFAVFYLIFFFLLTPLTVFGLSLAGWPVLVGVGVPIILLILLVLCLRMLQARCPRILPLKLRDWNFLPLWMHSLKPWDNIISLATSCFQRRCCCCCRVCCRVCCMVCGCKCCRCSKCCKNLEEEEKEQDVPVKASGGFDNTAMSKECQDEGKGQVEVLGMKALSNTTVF
measurement.type: IC50

Example entries begin here.
# compound, IC50
measured = [
    ("O=C(O)CCSCc1cccc(C(=O)Nc2ccc(N3CCCCC3)cc2-c2cc(C(=O)NCCc3cccc(C(F)(F)F)c3)ccn2)c1", "1000 to 7940 nM"),
    ("CN(CCO)C(=O)c1cccc(C(=O)Nc2ccc(N3CCCCC3)cc2-c2cc(C(=O)NC3CCCc4ccccc43)ccn2)c1 (stereo in doubt)", "< 1000 nM"),
]

Moving on to the next compound.
## Input Would you mind telling me what IC50 value was observed for O=C(NCc1cccc(C(F)(F)F)c1)c1ccnc(-c2cc(N3CCCCC3)ccc2NC(=O)c2cccc(CSCCOCCOCCOCCOCCC(=O)N3CCN(CCOCCO)CC3)c2)c1 ?
## Output 1000 to 7940 nM
